System: Washed platelets
Experiment: Platelet aggregation in washed platelets (aggregometer)
Type: cell-based, Human
Conditions: Homo sapiens, Platelet; collagen 2 μg/mL; washed platelets; read-out: IC50 for platelet aggregation, Collagen
// NB: equality with 5 µM counts as 0 (no); only IC50 strictly below is 1 (yes)

Use these answered entries as a reference point.
[[record]]
test_smiles = "CCCCC1=CC(C)(C)c2c(O)c(C)c(C)c(O)c2C1=O"
discrete_label = "1 (yes)"

[[record]]
test_smiles = "CCCCC1=CC(C)(C)c2c(OC)c(C)c(C)c(O)c2C1=O"
discrete_label = "0 (no)"


Does Cc1c(C)c(O)c2c(c1O)C(=O)C(CCCCBr)=CC2(C)C have IC50 strictly under 5 µM?
0 (no)

And for Cc1c(C)c(O)c2c(c1O)C(=O)C(CCCC[P+](c1ccccc1)(c1ccccc1)c1ccccc1)=CC2(C)C.[Br-] ?
1 (yes)
